This collection of values is drawn from PubChem BioAssay (NCI).

- Test system: RPMI-8226 leukemia
- test.method.notes: NCI tumour cell line growth inhibition, 48 h; in the data active means GI50 below about 0.43 µM; inactive means the rest
// allowed return values: active, inactive

What did the test return for CN1CCN(C(=O)c2cc(-c3ccc4ncnc(N5CCc6cc(F)c(Cl)cc65)c4c3)cnc2N)CC1 ?
active

What did the test return for CC(C)C[C@H](NC(=O)CNC(=O)c1cc(Cl)ccc1Cl)B1OC(=O)CC(CC(=O)O)(C(=O)O)O1 (some centres not stated) ?
active

What did the test return for CC(C)NCCCn1c(Sc2cc3c(cc2I)OCO3)nc2c(N)ncnc21 ?
inactive

What did the test return for O=C1CCC(N2Cc3cc(CNC(=O)C(F)(F)c4ccc(Cl)cc4)ccc3C2=O)C(=O)N1 (configuration not stated) ?
inactive

What did the test return for O=c1[nH]c(=O)n(C2CC(O)C(COP(=O)(OCc3ccc([N+](=O)[O-])o3)N(CCCCCl)CC(O)CO)O2)cc1F (configuration not stated) ?
active

What did the test return for COc1ccc2c(c1)N(CCO)C1=C(C(=O)OC1)C2c1cccc(F)c1 (configuration not stated) ?
inactive

What did the test return for OCc1ccc(N2CCCC2c2ccccc2)cc1Cl (configuration not stated) ?
inactive

What did the test return for N#Cc1c(N2CCOCC2)nc(=S)[nH]c1-c1ccco1 ?
inactive

What did the test return for O=C(Nc1ccc(OCc2nnc(-c3ccc(Cl)cc3)o2)c(F)c1)Nc1ccc(Cl)c(C(F)(F)F)c1 ?
inactive

What did the test return for COc1ccc(-c2cc(-c3ccc(C)cc3)nc3nc(=S)[nH]c(N)c23)cc1 ?
inactive

What did the test return for CCCCCCCCCCCCCCCCCC1=NCCN1CCOC1=C(Cl)C(=O)c2ccccc2C1=O ?
inactive

What did the test return for C/C(=C\c1ccc2ccccc2c1)[N+](=O)[O-] ?
inactive

----------
- Tested on: MDA-MB-231 breast
- test.method.notes: NCI tumour cell line growth inhibition, 48 h
Give 1.0 when the value for TGI is at least 20 µM. Give 0.0 when it is less.

Item COc1ccc(C2SCC(=O)N2c2ccc(-c3ccc(-n4c(-c5ccccc5)nc5ccccc5c4=O)cc3)cc2)cc1OC (configuration not stated) with TGI of 20 µM or above?
1.0

Item N#Cc1sc2c(c1OC(=O)c1ccccc1)c(=O)n(-c1ccccc1)c(=S)n2-c1ccccc1 with TGI of 20 µM or above?
1.0

Item CCOC(=O)C1=NOC2(C=C(Br)C(=O)C(Br)=C2)C1 with TGI of 20 µM or above?
1.0

Item OCc1ccc(N2CCCC2c2ccccc2)cc1Cl (configuration not stated) with TGI of 20 µM or above?
1.0

Item COc1cc2nc(N3CCCC3)nc(NCCc3ccccc3)c2cc1OC with TGI of 20 µM or above?
0.0

Item O=C(OCc1ccc2ccccc2n1)c1cn(C2CC2)c2cc(N3CCN(Cc4ccc5ccccc5n4)CC3)c(F)cc2c1=O with TGI of 20 µM or above?
1.0

Item CC(=O)c1ccc2c(c1)CC1(C2)Cc2cc3c(cc2C1=O)CCC3 (configuration not stated) with TGI of 20 µM or above?
1.0

Item O=C1OCC2OC(=O)c3cc(O)c(O)c(O)c3-c3c(O)c(O)c(O)c4c3C(=O)OC(C2OC(=O)c2cc(O)c(O)c(O)c2-c2c1cc(O)c(O)c2O)C1OC(=O)c2c-4c(O)c(O)c(O)c2[C@@H]1C(O)C(O)C(O)C(O)CO (some centres not stated) with TGI of 20 µM or above?
1.0

Item CO/N=C(\COc1ccc2c(c1)[nH]c1ccccc12)c1ccc(F)cc1 with TGI of 20 µM or above?
1.0

Item COc1cc2c(c(OC)c1)/C(=C/Sc1ccccc1)C(=O)N(C(C)(C)C)C2 with TGI of 20 µM or above?
1.0

Item O=C1OCC2=C1C(c1ccc(Cl)c(Cl)c1)c1cc3c(cc1N2CCO)OCCO3 (configuration not stated) with TGI of 20 µM or above?
0.0

Item CCOC(=O)C1=C(C)N(c2ccc(Cl)cc2)[C@]2(C#N)C(O)=C(Cl)C(Cl)=C(O)[C@]12C#N with TGI of 20 µM or above?
1.0

Item CC(C)(C)c1cc2c(OC/C=C/c3ccccc3)c(c1)Cc1cc(C(C#N)(OC/C=C/c3ccccc3)OC/C=C/c3ccccc3)cc(c1OC/C=C\c1ccccc1)Cc1cc(C(C)(C)C)cc(c1OC/C=C/c1ccccc1)Cc1cc(C(C#N)(OC/C=C\c3ccccc3)OC/C=C/c3ccccc3)cc(c1OC/C=C\c1ccccc1)C2 (configuration not stated) with TGI of 20 µM or above?
1.0

Item COc1ccc(C(=O)/C=C/c2ccc(O)c(O)c2)c(OC)c1 with TGI of 20 µM or above?
1.0

Item CCC1(c2ccccc2)C(=O)N=C(c2ccccc2)N1CCc1ccccc1 (configuration not stated) with TGI of 20 µM or above?
1.0

Item CN1C(=O)N(C)C2C1NN=c1s/c(=C\c3ccc(C(F)(F)F)cc3)c(=O)n12 (configuration not stated) with TGI of 20 µM or above?
0.0
